pIC50 by entry:
# SYSTEM_UNDER_TEST: (p)Hsp90-p50^Cdc37 (Homo sapiens)
# Sequence (P08238 whole entry): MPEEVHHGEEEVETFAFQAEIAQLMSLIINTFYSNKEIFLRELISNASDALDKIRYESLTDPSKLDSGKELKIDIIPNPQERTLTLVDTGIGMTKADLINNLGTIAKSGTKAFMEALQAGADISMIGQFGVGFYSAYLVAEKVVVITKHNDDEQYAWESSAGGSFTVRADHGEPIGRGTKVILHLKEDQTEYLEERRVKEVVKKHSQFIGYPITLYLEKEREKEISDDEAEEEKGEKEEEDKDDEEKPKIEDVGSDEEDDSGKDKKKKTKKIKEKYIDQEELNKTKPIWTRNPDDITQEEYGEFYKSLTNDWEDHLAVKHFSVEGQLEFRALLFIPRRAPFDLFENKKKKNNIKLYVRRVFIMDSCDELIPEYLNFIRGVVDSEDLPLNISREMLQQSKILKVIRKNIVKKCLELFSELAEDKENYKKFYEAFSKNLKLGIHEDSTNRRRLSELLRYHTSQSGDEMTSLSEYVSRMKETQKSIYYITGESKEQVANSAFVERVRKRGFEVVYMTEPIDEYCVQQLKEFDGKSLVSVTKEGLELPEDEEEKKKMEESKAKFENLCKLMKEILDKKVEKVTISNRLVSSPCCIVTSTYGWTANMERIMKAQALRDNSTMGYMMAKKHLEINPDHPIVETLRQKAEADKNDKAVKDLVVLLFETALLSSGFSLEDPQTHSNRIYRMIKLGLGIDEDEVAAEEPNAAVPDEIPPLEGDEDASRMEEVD
# METHOD_SUMMARY: ELISA complex formation, CK2-phosphorylated Hsp90β
# CONDITION_INFO: ELISA, (p)Hsp90-p50^Cdc37
pIC50: −log10 of the molar value.

- MOLECULAR_STRING: "O=C(O)CCc1nn(Cc2ccc(Cl)cc2Cl)c2cc(C(F)(F)F)ccc12"
  CENSORING_OPERATOR: "<"
  pIC50: 3.00
- MOLECULAR_STRING: "Nc1ncnc2c1ncn2[C@@H]1O[C@H](COP(=O)(O)OP(=O)(O)OP(=O)(O)O)[C@@H](O)[C@H]1O"
  CENSORING_OPERATOR: "="
  pIC50: 3.35
- MOLECULAR_STRING: "Nc1ncnc2c1ncn2[C@@H]1O[C@H](COP(=O)(O)OP(=O)(O)NP(=O)(O)O)[C@@H](O)[C@H]1O"
  CENSORING_OPERATOR: "<"
  pIC50: 3.00
- MOLECULAR_STRING: "Nc1ncnc2c1ncn2[C@@H]1O[C@H](COP(=O)(O)OP(=O)(O)O)[C@@H](O)[C@H]1O"
  CENSORING_OPERATOR: "="
  pIC50: 3.66
